# tested system: Endothelial lipase (EL) (Homo sapiens (Human), UniProt Q9Y5X9)
# Sequence (Q9Y5X9 21-500): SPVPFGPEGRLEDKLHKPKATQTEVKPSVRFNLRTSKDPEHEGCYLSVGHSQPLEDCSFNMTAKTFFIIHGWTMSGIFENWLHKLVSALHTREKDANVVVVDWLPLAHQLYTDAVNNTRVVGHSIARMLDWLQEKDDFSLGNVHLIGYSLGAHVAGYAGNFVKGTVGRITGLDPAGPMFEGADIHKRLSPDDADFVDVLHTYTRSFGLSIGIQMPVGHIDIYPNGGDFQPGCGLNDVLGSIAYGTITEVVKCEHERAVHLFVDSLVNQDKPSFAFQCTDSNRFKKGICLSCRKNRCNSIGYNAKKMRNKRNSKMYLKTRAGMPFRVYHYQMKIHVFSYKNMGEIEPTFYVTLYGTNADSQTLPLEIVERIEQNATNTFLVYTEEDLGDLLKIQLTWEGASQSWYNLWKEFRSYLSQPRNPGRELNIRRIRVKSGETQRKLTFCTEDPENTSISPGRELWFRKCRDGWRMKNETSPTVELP
# test summary: Endothelial lipase (EL) enzymatic assay with fluorescent substrate A10070 in DMPG vesicles
# Type: biochemical
pIC50: −log10 of the molar value.
property label: pIC50

(a) COCCS(=O)(=O)C(C(=O)NCC(=O)NC1CC1)c1nc2ccc(-c3cncnc3)cc2s1 (stereo not drawn) [Example 310]
(b) O=C(CNC(=O)C(c1nc2ccc(-c3ccc(F)nc3)cc2s1)S(=O)(=O)c1cccnc1)NC1CC1 (stereo not drawn) [Example 467]
(c) Cc1cc2nc(C(C(=O)NCC(=O)NC3CC3)S(=O)(=O)C(C)C)sc2cc1-c1ccc2[nH]c(=O)ccc2c1 (stereo not drawn) [Example 204]
Hello, I need these entries ordered by pIC50, highest reading first. Thanks! Provide the labels, sequenced as the question asks. c, a, b
